Test: RP, Phenomenex Kinetex C18, 150 × 2.1 mm, 1.7 µm, 30 °C, 0.3 mL/min, estimated dead time 1.1 min; A: water + 0.1% formic acid, pH 3; B: acetonitrile + 0.1% formic acid, pH 3; gradient (min/%B) 0/2 14/100 17/100 17.1/2 25/2
Conditions: stereoisomer not certain
Kindly state LC retention time for each of the entries shown.
Numbers only, in min.

Below: 2 compounds and their reported LC retention time.
Query block: Field request: LC retention time | item: O=C(O)c1cccc([O-])c1 [3-HYDROXYBENZOATE]
Result block: 4.87

Query block: Sample O=c1[nH]c(=O)c2nccnc2[nH]1 [2,4-DIHYDROXYPTERIDINE] — what was its LC retention time?
Result block: 2.24

Here are 4 compounds. What values of LC retention time were reported for them?
1. O=C(O)CCCCCCCCCO [10-HYDROXYDECANOATE]
2. Nc1c([O-])cccc1C(=O)O [3-HYDROXYANTHRANILATE]
3. COc1cc(C(O)C(=O)O)ccc1O (stereo not given) [3-METHOXY-4-HYDROXYMANDELATE]
4. CC(O)(CCO)CC(=O)[O-] (stereo not given) [MEVALONATE]

Result block:
7.13
3.68
2.94
1.99

Hey, can you go through the list below and give me LC retention time for every item?
1. O=C(O)c1cccnc1C(=O)O [QUINOLINATE]
2. O=C(O)Cc1cccc(O)c1 [3-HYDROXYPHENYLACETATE]
3. O=C(O)C=Cc1ccc(O)cc1 [4-COUMARATE]

Result block:
1: 1.47; 2: 4.82; 3: 5.47

Query block: Return reported LC retention time; argument: O=C(O)Cc1ccc(O)c(O)c1 [3,4-DIHYDROXYPHENYLACETATE]
Result block: 3.93

---

Experiment: HILIC, Merck SeQuant ZIC-pHILIC, 150 × 2.1 mm, 5 µm, 40 °C, 0.3 mL/min, estimated dead time 1.1 min; A: acetonitrile; B: water + 2.8 mM ammonium formate, pH 9; gradient (min/%B) 0/5 1/5 10/51 13/51 13.1/5 20/5
Settings: stereoisomer not certain
parameter-measured: LC retention time (min)
One number for each entry, in min.

Query block: Would you mind telling me what LC retention time value was observed for OCC1OC(OCC2OC(OCC3OC(OC4(CO)OC(CO)C(O)C4O)C(O)C(O)C3O)C(O)C(O)C2O)C(O)C(O)C1O (stereo not drawn) [STACHYOSE] ?
Result block: 10.1

Query block: What does the record list as LC retention time for CC(O)(CC(=O)O)C(=O)O (stereo not drawn) [CITRAMALATE] ?
Result block: 8.8

Query block: Data request, read-out LC retention time, for CC(O)C(O)C1=Nc2c(nc(N)[nH]c2=O)NC1 (stereo not drawn) [DIHYDROBIOPTERIN]
Result block: 5.52

Query block: For the compound shown here, NC(=O)NCCCC(N)C(=O)O (stereo not drawn) [CITRULLINE] , give the reported LC retention time.
Result block: 9.31

Query block: I have this compound here, O=CC(O)C1OC(=O)C(O)C1O [D-GLUCURONOLACTONE] , and I need its recorded LC retention time.
Result block: 6.28

Query block: Field request: LC retention time | item: NCCC(=O)NC(Cc1cnc[nH]1)C(=O)O (stereo not drawn) [CARNOSINE]
Result block: 10.5

Query block: Can you share its LC retention time? I mean this compound: Nc1nc2c(ncn2C2OC(COP(=O)(O)OP(=O)(O)OP(=O)(O)O)C(O)C2O)c(=O)[nH]1 (stereo not drawn) [GUANOSINE TRIPHOSPHATE]
Result block: 11.5

Query block: Param item = NC(CSSCC(N)C(=O)O)C(=O)O (stereo not drawn) [CYSTINE] ; retrieve measured LC retention time.
Result block: 10.3

# batch size: 7; output LC retention time per entry
1. OC1COC(O)C(O)C1O (stereo not drawn) [XYLOSE]
2. CC1NC(=O)NC1CCCCCC(=O)O (stereo not drawn) [DETHIOBIOTIN]
3. O=c1cccc(O)[nH]1 [2,6-DIHYDROXYPYRIDINE]
4. CC(=O)NCCCC(=O)[O-] [4-ACETAMIDOBUTANOATE]
5. O=C(O)c1cc(=O)c2ccccc2[nH]1 [KYNURENATE]
6. O=C(O)c1ccccc1O [SALICYLATE]
7. Cc1cn(C2CC(O)C(COP(=O)(O)OP(=O)(O)OC3OC(CO)C(O)C(O)C3O)O2)c(=O)[nH]c1=O [DTDP-D-GLUCOSE]

Result block:
1: 8.34; 2: 3.18; 3: 6.67; 4: 5.1; 5: 5.56; 6: 1.91; 7: 8.93

---

So I've got a bunch of compounds here, and I need their LC retention time values.
Experiment: RP, Phenomenex Kinetex C18, 150 × 2.1 mm, 1.7 µm, 30 °C, 0.3 mL/min, estimated dead time 1.1 min; A: water + 0.1% formic acid, pH 3; B: acetonitrile + 0.1% formic acid, pH 3; gradient (min/%B) 0/2 14/100 17/100 17.1/2 25/2
Conditions: stereoisomer not certain
One number for each entry, in min.

Completed entries (count: 5):
Query block: I am curious: what LC retention time value has been reported for Nc1ccn(C2CC(O)C(CO)O2)c(=O)n1 (stereo not given) [DEOXYCYTIDINE] ?
Result block: 1.43

Query block: Reported LC retention time for O=C(O)Cc1ccc(O)cc1 [P-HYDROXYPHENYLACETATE] : what is it?
Result block: 4.59

Query block: Report LC retention time for CC(=O)OCC(=O)C1(O)CCC2C3CCC4=CC(=O)CCC4(C)C3C(O)CC21C (stereo not given) [CORTISOL 21-ACETATE] please.
Result block: 8.62

Query block: Consider the compound shown here: CSc1ncnc2nc[nH]c12 [THIOPURINE S-METHYLETHER] What is its recorded LC retention time?
Result block: 4.4

Query block: Name the recorded LC retention time for O=c1[nH]c(=O)c2ncn(C3OC(COP(=O)(O)O)C(O)C3O)c2[nH]1 (stereo not given) [XANTHOSINE-MONOPHOSPHATE] .
Result block: 1.45

Please state LC retention time for every compound in the list that follows.
1. Nc1ncnc2c1ncn2C1OC(COP(=O)(O)O)C(O)C1O (stereo not given) [ADENOSINE-MONOPHOSPHATE]
2. CCCCC(N)C(=O)O (stereo not given) [NORLEUCINE]
3. O=C(O)c1ccc2ccccc2c1[O-] [1-HYDROXY-2-NAPHTHOATE]
4. NC(=O)c1ccccc1O [SALICYLAMIDE]
5. CC(=O)N[C@@H]1[C@@H](O)[C@H](O)[C@@H](CO)O[C@H]1N [2-ACETAMIDO-2-DEOXY-BETA-D-GLUCOSYLAMINE]
6. CC(=O)NC(C)C(=O)O (stereo not given) [N-ACETYLALANINE]

Result block:
1.41
2.19
9.28
5.26
9.58
1.97

---

Assay: RP, Phenomenex Kinetex C18, 150 × 2.1 mm, 1.7 µm, 30 °C, 0.3 mL/min, estimated dead time 1.1 min; A: water + 0.1% formic acid, pH 3; B: acetonitrile + 0.1% formic acid, pH 3; gradient (min/%B) 0/2 14/100 17/100 17.1/2 25/2
Settings: stereoisomer not certain
Rule: LC retention time below 4 min gives Fulfilled, anything at or above gives Not fulfilled.

Query block: Is 4 min strictly greater than the compound's reported LC retention time? compound: O=C(O)c1cc(O)ccc1[O-] [2,5-DIHYDROXYBENZOATE]
Result block: Not fulfilled

---
Query block: Dear reviewer, please state whether CC(C(=O)O)C(=O)O [METHYLMALONATE] has LC retention time strictly beneath 4 min.
Result block: Fulfilled

Query block: Does the reported LC retention time of the following compound sit strictly below 4 min? O=C(O)Cc1ccccc1O [2-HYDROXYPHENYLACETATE]
Result block: Not fulfilled

Query block: Dear colleague, could you confirm whether LC retention time of CC(CCC(=O)O)C(=O)O (stereo not given) [2-METHYLGLUTARATE] falls below 4 min? Thanks.
Result block: Fulfilled

Query block: Decide: LC retention time of O=C(O)Cc1c[nH]c2ccc(O)cc12 [5-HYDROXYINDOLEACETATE] strictly below 4 min?
Result block: Not fulfilled

Query block: For CCC(NC(=O)CCC([NH3+])C(=O)[O-])C(=O)NCC(=O)[O-] (stereo not given) [OPHTHALMATE] , is the recorded LC retention time below the cut-off of 4 min?
Result block: Fulfilled

Query block: Identify whether the compound NC(=O)[C@@H](N)Cc1c[nH]c2ccccc12 [L-TRYPTOPHANAMIDE] records LC retention time below 4 min.
Result block: Fulfilled

Query block: Hello, is LC retention time of the following compound strictly smaller than 4 min? O=c1[nH]cnc2nc[nH]c12
Result block: Fulfilled

Query block: hey, is LC retention time for COc1cc(CC(=O)O)ccc1O [HOMOVANILLATE] lower than 4 min or not?
Result block: Not fulfilled

Query block: Is 4 min strictly greater than the compound's reported LC retention time? compound: NC(N)=NCCCC(=O)O [4-GUANIDINOBUTANOATE]
Result block: Fulfilled

Hey, just so you know, these numbers are from the RepoRT retention time repository (doi:10.1016/j.chroma.2019.01.023).
